biological target: ALK (Homo sapiens (Human), UniProt Q9UM73); experiment: In vitro kinase activity assay (LANCE TR-FRET); type: biochemical; conditions: read-out: ALK IC50
Sequence (Q9UM73 19-1620): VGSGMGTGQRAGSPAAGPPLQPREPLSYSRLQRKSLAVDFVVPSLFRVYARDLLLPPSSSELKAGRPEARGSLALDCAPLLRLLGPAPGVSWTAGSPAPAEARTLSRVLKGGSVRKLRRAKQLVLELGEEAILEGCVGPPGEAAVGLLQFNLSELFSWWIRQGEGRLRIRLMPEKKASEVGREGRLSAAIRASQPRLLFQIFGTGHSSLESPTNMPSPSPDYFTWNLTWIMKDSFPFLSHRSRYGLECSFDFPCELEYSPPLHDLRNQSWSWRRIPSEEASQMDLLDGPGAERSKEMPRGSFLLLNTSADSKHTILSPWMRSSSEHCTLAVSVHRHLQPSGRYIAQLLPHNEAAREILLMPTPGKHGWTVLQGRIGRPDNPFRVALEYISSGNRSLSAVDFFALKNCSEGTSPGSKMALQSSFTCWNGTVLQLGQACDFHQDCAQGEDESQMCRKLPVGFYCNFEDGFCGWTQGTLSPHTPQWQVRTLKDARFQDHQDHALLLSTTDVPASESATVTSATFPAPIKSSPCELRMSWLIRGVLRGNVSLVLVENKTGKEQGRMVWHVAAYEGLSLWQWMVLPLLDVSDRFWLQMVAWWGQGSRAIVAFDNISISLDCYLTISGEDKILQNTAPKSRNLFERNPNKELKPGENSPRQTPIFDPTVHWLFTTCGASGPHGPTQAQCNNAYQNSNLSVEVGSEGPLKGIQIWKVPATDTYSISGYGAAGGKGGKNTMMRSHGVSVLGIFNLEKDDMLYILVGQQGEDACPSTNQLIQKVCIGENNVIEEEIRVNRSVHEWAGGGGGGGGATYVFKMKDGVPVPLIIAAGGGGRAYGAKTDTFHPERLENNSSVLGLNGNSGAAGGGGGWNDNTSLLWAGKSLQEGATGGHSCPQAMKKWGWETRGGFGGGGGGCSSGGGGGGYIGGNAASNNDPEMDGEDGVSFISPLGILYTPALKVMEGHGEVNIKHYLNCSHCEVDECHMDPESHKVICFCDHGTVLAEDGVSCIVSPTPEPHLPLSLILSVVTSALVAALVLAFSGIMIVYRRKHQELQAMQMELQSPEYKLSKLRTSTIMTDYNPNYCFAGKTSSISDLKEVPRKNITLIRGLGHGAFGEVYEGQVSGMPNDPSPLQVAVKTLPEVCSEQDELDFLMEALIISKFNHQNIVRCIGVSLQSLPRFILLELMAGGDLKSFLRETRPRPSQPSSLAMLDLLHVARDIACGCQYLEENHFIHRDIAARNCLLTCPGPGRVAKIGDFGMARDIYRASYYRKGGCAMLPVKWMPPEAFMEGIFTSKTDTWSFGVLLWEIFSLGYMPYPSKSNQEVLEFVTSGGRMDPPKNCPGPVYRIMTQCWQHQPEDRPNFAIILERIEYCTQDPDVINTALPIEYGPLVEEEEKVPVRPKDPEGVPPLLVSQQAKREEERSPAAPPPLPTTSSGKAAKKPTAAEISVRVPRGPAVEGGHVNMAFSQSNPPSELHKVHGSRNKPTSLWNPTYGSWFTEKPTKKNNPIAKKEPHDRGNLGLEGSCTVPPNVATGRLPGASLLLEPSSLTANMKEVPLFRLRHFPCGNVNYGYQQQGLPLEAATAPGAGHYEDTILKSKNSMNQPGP
Consider the following molecules; for each one, report its pIC50.
Give bare numbers, as −log10 of the molar value.

C[C@@H](Cc1c(F)c(F)cc(F)c1F)Nc1cc[nH]c(=O)c1-c1nc2cc3c(cc2[nH]1)C(=O)N(CCN(C)C)C3=O [Compound 2] ... 7.85

Please find the next molecule below.
**Query** Item C[C@@H](Cc1cc(F)cc(F)c1F)Nc1cc[nH]c(=O)c1-c1nc2cc3c(cc2[nH]1)CN(CCN(C)C)C3=O [Compound 31] : provide pIC50
**Result** 9.00

====

experiment: Metabolic stability, Phase I microsome reactions; format: in vitro ADME, mouse; settings: mouse, pH 7.4, Phase I only, 1.0 mg/ml microsomes, read-out: Mouse LM-P1 Half-life
ASSAY READOUT: half-life at 0.5 μM
Give your result as the value with the unit written after it.

**Query** Identify measured half-life at 0.5 μM corresponding to C[C@@H](Cc1c(F)c(F)cc(F)c1F)Nc1cc[nH]c(=O)c1-c1nc2cc3c(cc2[nH]1)CN(CCN(C)C)C3=O [Compound 1]
**Result** 8.4 min

====

molecular target: TrkA (Homo sapiens (Human)); experiment: In vitro kinase activity assay (LANCE TR-FRET); type: biochemical; settings: read-out: TrkA (nM) IC50;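 note: kinase reaction with poly-GT peptide substrate and ATP, phosphorylated product quantified by time-resolved FRET, eleven-point dose curves from 10^−11 to 10^−5 M in triplicate, DMSO as negative control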
Sequence (P04629 33-796): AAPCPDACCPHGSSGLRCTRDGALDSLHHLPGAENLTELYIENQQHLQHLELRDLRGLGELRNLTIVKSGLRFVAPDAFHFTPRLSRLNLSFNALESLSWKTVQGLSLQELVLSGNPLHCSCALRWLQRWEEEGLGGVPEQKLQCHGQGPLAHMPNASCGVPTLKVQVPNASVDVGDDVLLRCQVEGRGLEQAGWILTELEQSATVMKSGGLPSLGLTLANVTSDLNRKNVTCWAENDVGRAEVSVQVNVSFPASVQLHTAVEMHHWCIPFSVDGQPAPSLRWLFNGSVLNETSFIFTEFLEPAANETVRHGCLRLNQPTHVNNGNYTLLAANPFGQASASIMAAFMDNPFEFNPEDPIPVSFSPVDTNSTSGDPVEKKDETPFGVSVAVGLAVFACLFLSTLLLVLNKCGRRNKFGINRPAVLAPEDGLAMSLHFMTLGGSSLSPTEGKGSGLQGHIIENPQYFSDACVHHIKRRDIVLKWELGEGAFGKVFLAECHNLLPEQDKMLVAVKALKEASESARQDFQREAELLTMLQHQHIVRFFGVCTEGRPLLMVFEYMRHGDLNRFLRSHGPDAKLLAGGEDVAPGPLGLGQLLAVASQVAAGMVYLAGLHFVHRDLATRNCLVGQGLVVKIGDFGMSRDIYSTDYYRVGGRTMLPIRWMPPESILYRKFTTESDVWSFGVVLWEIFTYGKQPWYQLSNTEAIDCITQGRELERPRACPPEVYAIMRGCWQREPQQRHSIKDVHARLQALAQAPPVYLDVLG
IC50 under 8 nM gets class 1, anything at or over 8 nM gets class 0.

// below: answered compounds
CC(Cc1c(F)c(F)cc(F)c1F)Nc1cc[nH]c(=O)c1-c1nc2cc3c(cc2n1C)C(=O)N(C)C3 (stereo not shown) [Compound 43a] ... class 0
Cc1c2c(cc3[nH]c(-c4c(NC(C)Cc5c(F)c(F)cc(F)c5F)cc[nH]c4=O)nc13)C(=O)N(C1CCN(C)CC1)C2=O (stereo not shown) ... class 0
CC(Cc1cc(F)ccc1F)Nc1cc[nH]c(=O)c1-c1nc2cc3c(cc2[nH]1)C(=O)N(CCN(C)C)C3=O (stereo not shown) ... class 0
C[C@@H](Cc1c(F)c(F)cc(F)c1F)Nc1cc[nH]c(=O)c1-c1nc2cc3c(cc2[nH]1)C(=O)N(c1cccnc1)C3=O ... class 0
CC(Cc1c(F)c(F)cc(F)c1F)Nc1cc[nH]c(=O)c1-c1nc2cc3c(cc2[nH]1)C(=O)N(C)C3=O (stereo not shown) ... class 0

Would you kindly look at the next entry?
**Query** Given Cc1c2c(cc3[nH]c(-c4c(NC(C)Cc5c(F)c(F)cc(F)c5F)cc[nH]c4=O)nc13)CN(C1CCN(C)CC1)C2=O (stereo not shown) , is recorded IC50 strictly lower than 8 nM?
**Result** class 0

====

target: hERG potassium channel (Homo sapiens (Human), UniProt Q12809); assay: in vitro; details: Mean % hERG Inhibition;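 note: Four-point series of 0.3, 3, 10 and 30 µM, two cells recorded per concentration, 5 min exposure at each level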
Sequence (Q12809 whole entry): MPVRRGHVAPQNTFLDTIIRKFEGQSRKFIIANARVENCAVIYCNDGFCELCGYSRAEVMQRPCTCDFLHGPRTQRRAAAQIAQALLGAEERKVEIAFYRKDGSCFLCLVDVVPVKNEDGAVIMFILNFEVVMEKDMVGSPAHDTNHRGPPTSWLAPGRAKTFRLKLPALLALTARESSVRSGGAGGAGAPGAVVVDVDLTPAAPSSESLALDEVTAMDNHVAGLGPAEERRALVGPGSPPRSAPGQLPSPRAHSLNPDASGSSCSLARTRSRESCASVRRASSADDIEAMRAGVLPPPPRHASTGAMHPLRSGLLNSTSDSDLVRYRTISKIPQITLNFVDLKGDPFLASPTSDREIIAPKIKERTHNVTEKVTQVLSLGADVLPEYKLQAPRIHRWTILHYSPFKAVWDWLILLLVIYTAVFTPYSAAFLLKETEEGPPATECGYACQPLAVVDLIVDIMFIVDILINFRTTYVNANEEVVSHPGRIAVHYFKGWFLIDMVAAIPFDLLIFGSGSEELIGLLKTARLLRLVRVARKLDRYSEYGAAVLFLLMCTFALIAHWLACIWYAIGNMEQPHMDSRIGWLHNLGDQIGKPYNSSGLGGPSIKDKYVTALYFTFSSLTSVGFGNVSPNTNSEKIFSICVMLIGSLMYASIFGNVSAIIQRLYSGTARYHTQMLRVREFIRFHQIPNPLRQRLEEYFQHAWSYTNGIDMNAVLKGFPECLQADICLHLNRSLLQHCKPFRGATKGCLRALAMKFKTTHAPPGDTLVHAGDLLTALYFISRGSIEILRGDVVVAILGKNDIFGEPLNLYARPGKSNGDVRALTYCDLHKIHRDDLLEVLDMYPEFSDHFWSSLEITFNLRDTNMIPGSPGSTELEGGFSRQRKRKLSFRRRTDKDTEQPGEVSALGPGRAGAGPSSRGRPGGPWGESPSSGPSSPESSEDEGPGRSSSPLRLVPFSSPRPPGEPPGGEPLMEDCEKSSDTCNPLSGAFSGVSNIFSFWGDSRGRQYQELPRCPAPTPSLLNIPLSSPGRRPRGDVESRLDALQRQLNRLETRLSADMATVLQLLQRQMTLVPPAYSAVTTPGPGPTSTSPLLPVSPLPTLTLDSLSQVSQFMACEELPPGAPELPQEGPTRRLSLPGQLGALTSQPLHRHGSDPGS
ASSAY READOUT: inhibition at 5 min, 0.3 µM (%)
Give bare numbers, in %.

**Query** Look up and report measured inhibition at 5 min, 0.3 µM for this entry: `C[C@@H](Cc1c(F)c(F)cc(F)c1F)Nc1cc[nH]c(=O)c1-c1nc2cc3c(cc2[nH]1)CN(CCN1CCCC1)C3=O`
**Result** 12.2

====

test: Mouse pharmacokinetics; details: plasma, sc, 10 mg/kg
ASSAY READOUT: AUC (ng·h/mL)
One number for each entry, in ng·h/mL.

**Query** Indicate the recorded AUC value for this compound: `C[C@@H](Cc1c(F)c(F)cc(F)c1F)Nc1cc[nH]c(=O)c1-c1nc2cc3c(cc2[nH]1)CN(CCN(C)C)C3=O`
**Result** 522
